target: T1, Human PCSK9 Alexa Fluor 647 (human, UniProt Q8NBP7 31-692, limits assumed, Alexa Fluor 647 label (site not stated)); assay: TR-FRET competition: PCSK9-Alexa Fluor 647 vs LDLR ECD-Eu kryptate
T1 construct: Labelled tracer of the TR-FRET assay, 16 nM stock; also called proprotein convertase subtilisin/kexin type 9
T1 sequence (Q8NBP7 31-692 limits assumed): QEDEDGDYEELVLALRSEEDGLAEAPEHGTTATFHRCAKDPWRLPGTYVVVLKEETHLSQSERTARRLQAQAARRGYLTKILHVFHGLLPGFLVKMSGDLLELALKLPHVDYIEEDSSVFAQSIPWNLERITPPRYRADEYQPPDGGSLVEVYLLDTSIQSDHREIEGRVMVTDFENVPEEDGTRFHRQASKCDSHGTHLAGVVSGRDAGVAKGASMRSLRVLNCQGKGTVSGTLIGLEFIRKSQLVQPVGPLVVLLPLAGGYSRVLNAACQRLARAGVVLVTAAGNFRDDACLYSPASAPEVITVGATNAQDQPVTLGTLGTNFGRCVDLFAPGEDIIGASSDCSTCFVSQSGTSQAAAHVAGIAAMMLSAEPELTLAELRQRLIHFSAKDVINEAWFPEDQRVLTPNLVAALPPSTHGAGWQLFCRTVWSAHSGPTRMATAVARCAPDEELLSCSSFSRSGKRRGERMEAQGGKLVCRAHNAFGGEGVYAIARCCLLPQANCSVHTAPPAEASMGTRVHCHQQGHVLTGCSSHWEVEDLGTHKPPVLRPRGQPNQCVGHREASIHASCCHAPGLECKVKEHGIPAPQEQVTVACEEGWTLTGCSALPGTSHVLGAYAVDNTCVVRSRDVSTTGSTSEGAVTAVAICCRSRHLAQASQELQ
Bridge positions count the residues as written; N and C are the ends. Square brackets hold non-standard residues; d marks the D form. Bip = N[C@@H](Cc1ccc(-c2ccccc2)cc1)C(=O)O; NMeF = CN[C@@H](Cc1ccccc1)C(=O)O; NMeA = CN[C@@H](C)C(=O)O
Hi there, I'd appreciate the recorded Maximum % inhibition for every entry that follows.
Your answer is read as %, so omit the unit and give the number.

Query string: Quick check: Maximum % inhibition of {CH2CO}-FVPTT[Bip][NMeA][Bip][NMeA]AAPC-NHEt (thioether N-13; SMILES CCNC(=O)[C@@H]1CSCC(=O)N[C@@H](Cc2ccccc2)C(=O)N[C@@H](C(C)C)C(=O)N2CCC[C@H]2C(=O)N[C@@H]([C@@H](C)O)C(=O)N[C@@H]([C@@H](C)O)C(=O)N[C@@H](Cc2ccc(-c3ccccc3)cc2)C(=O)N(C)[C@@H](C)C(=O)N[C@@H](Cc2ccc(-c3ccccc3)cc2)C(=O)N(C)[C@@H](C)C(=O)N[C@@H](C)C(=O)N[C@@H](C)C(=O)N2CCC[C@H]2C(=O)N1, also called 3-4; Ex. No. 3-4) [Ac*-F-V-P-T-T-B-(N-Me)A-B-(N-Me)A-A-A-P-C*-NHEt] ?
Result string: 49

Query string: Also FVSTTSFXADRPCG (not fully specified; N-terminal acetyl (Ac*) joined by a sulfide bond to the side chain of Cys13 (cyclic); 7: L-(N-Me)Phe; 8: L-Bip; 9: L-(N-Me)Ala; C-terminal amide (NH2), also called 1-9; Ex. No. 1-9) [Ac*-F-V-S-T-T-S-(N-Me)F-B-(N-Me)A-D-R-P-C*-G-NH2] ?
Result string: 35

Query string: Param item: {CH2CO}-FVDTTA[NMeF][Bip][NMeA]EAPCG-NH2 (thioether N-13; SMILES CC(C)[C@@H]1NC(=O)[C@H](Cc2ccccc2)NC(=O)CSC[C@@H](C(=O)NCC(N)=O)NC(=O)[C@@H]2CCCN2C(=O)[C@H](C)NC(=O)[C@H](CCC(=O)O)NC(=O)[C@H](C)N(C)C(=O)[C@H](Cc2ccc(-c3ccccc3)cc2)NC(=O)[C@H](Cc2ccccc2)N(C)C(=O)[C@H](C)NC(=O)[C@H]([C@@H](C)O)NC(=O)[C@H]([C@@H](C)O)NC(=O)[C@H](CC(=O)O)NC1=O, also called 1-16; Ex. No. 1-16) [Ac*-F-V-D-T-T-A-(N-Me)F-B-(N-Me)A-E-A-P-C*-G-NH2]
Result string: 91

Query string: Now this one: FVSTTFAXAEAPCG (not fully specified; N-terminal acetyl (Ac*) joined by a sulfide bond to the side chain of Cys13 (cyclic); 7: L-(N-Me)Ala; 8: L-Bip; 9: L-(N-Me)Ala; C-terminal amide (NH2), also called 1-24; Ex. No. 1-24) [Ac*-F-V-S-T-T-F-(N-Me)A-B-(N-Me)A-E-A-P-C*-G-NH2]
Result string: 70

Source of measurements: patent US20220024981A1
